Let's look at some variants and their measured protein stability index.
B1: STK38L (parent)
chain: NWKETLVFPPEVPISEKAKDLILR

variants of: B1; test: protein stability index of a GFP-peptide fusion (GPS, HEK-293T) (PSI 1-6); higher = more stable; conditions: c terminus: a fixed tail appended;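 also: lentivirally expressed fusions sorted by FACS into six bins by GFP to DsRed ratio, PSI derived from sequencing read proportions per bin multiplied by bin number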
Write the number on its own, no unit after it.

D20R :: 2.94
K17H :: 2.98
N1D :: 3.57
A18F :: 3.06
K17A :: 3.17
R24D :: 4.32
N1R :: 2.74
I22L :: 3.21
E4M :: 2.58
W2C :: 3.67

*Q* Provide protein stability index value for the following variant: `S15N`
*A* 2.62

*Q* Provide protein stability index value for the following variant: `P13F`
*A* 2.35

*Q* Provide protein stability index value for the following variant: `E4D`
*A* 3.01

*Q* Provide protein stability index value for the following variant: `L6A`
*A* 4.04

*Q* Provide protein stability index value for the following variant: `L6Y`
*A* 3.39

*Q* Provide protein stability index value for the following variant: `K19R`
*A* 2.96

*Q* Provide protein stability index value for the following variant: `K17G`
*A* 2.8

*Q* Provide protein stability index value for the following variant: `K17R`
*A* 2.8

*Q* Provide protein stability index value for the following variant: `E16D`
*A* 3.64

*Q* Provide protein stability index value for the following variant: `I22E`
*A* 4.54

*Q* Provide protein stability index value for the following variant: `P9A`
*A* 2.69

*Q* Provide protein stability index value for the following variant: `L23A`
*A* 3.75

*Q* Provide protein stability index value for the following variant: `W2E`
*A* 4.15

*Q* Provide protein stability index value for the following variant: `P9I`
*A* 2.75

*Q* Provide protein stability index value for the following variant: `T5P`
*A* 3.42

*Q* Provide protein stability index value for the following variant: `K3A`
*A* 3.37

*Q* Provide protein stability index value for the following variant: `K19N`
*A* 3.07

*Q* Provide protein stability index value for the following variant: `P9R`
*A* 2.93
